- target of assay: T1, Human GIP receptor (human, UniProt P48546 22-466)
- T1 sequence: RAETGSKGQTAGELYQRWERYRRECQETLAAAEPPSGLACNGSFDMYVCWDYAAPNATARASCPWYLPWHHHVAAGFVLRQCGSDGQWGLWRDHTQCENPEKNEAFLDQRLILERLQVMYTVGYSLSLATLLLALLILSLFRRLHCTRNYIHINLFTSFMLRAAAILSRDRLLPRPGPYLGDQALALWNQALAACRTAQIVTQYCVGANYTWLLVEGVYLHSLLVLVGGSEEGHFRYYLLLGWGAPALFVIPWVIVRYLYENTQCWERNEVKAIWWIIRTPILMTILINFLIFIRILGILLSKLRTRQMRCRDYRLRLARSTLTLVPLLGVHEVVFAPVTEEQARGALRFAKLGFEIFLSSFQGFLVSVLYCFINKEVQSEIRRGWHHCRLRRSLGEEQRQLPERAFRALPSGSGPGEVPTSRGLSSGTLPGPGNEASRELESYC
- test: radioligand binding
readout type: Ki (nM)
Entry rule: numbers only, all in nM.

IN: What value of Ki has been reported for the following binder? YAEGTFISDYSIAMDKIRQQDFVNWLLAQRGKKSDWKHNITQ (ligand) [Mouse GIP (glucose-dependent insulinotropic polypeptide, GIP(1-42))]
OUT: 2
